Examples of compounds with documented ED50 follow.
Test system: von Bezold-Jarisch reflex evoked by 5-HT
Assay: Antagonism of the von Bezold-Jarisch reflex evoked by 5-HT in the anesthetized rat
Type: in vivo
Settings: iv, urethane-anesthetized male rats, submaximal 5-HT (usually 6 μg/kg i.v.), heart rate changes, read-out: ED50 (dose required to reduce the 5-HT-evoked response to 50% of the control response)
Structures can show the parent of a compound that is named as a salt.

The following compounds have reported results that may help.
1. CCc1nc(C(=O)NC2CC3CCC(C2)N3C)c2ccccn12 (centres unmarked) [Compound 9]
1 µg/kg
2. CN1C2CCC1CC(NC(=O)C1=CC(C)(C)c3ccccc31)C2 (centres unmarked) [Compound 13, monohydrochloride]
1.1 µg/kg
3. CCc1cc(C(=O)NC2CC3CCC(C2)N3C)c2ccccn12 (centres unmarked) [Compound 2]
0.24 µg/kg
4. CN1C2CCC1CC(NC(=O)c1ccc3cccccc1-3)C2 (centres unmarked) [Compound 17]
13 µg/kg

Proceed to the following item.
Task: // fetch ED50 for CCc1nc(C(=O)NC2CC3CCCC(C2)N3C)c2ccccn12 (centres unmarked) [Compound 8] ; system: von Bezold-Jarisch reflex evoked by 5-HT
Output: 0.5 µg/kg
